Origin of the recorded values: ChEMBL document CHEMBL4130416

Measured Activity of individual entries
# Tested on: HaCaT
# Experimental Protocol: Cytotoxicity against human HaCaT cells at 12.5 uM after 24 hrs by MTT assay relative to control
# Assay type: cell-based
Where a SMILES comes first, the peptide text is derived from it. [ ]: non-standard residue; d: D form. Aic = NC1(C(=O)O)Cc2ccccc2C1
Could you give me the number in %? Just the number is fine.

Sure, the documented Activity for CC[C@H](C)[C@H](NC(=O)[C@H](CCCNC(=N)N)NC(=O)C1(NC(=O)[C@@H](CC(C)C)NC(=O)[C@H](Cc2ccccc2)NC(=O)[C@H](CCCCN)NC(=O)[C@H](CO)NC(=O)[C@H](Cc2ccccc2)NC(=O)[C@H](Cc2c[nH]c3ccccc23)NC(=O)[C@@H]2CCCN2C(=O)[C@@H](NC(=O)[C@@H](N)Cc2ccccc2)C(C)C)Cc2ccccc2C1)C(=O)N[C@@H](CC(C)C)C(N)=O (H-FVPWFSKF[dL][Aic]RIL-NH2) is 45.54

Sure, the documented Activity for CC[C@H](C)[C@H](NC(=O)[C@H](CCCNC(=N)N)NC(=O)[C@H]1CCCN1C(=O)[C@@H](CC(C)C)NC(=O)[C@H](Cc1ccccc1)NC(=O)[C@H](CCCCN)NC(=O)[C@H](CO)NC(=O)[C@H](Cc1ccccc1)NC(=O)[C@H](Cc1c[nH]c2ccccc12)NC(=O)[C@@H]1CCCN1C(=O)[C@@H](NC(=O)[C@@H](N)Cc1ccccc1)C(C)C)C(=O)N[C@@H](CC(C)C)C(N)=O (H-FVPWFSKF[dL][dP]RIL-NH2) is 0

New cases:
Sure, the documented Activity for CC[C@H](C)[C@H](NC(=O)[C@H](CCCNC(=N)N)NC(=O)[C@@H](Cc1c[nH]c2ccccc12)NC(=O)[C@@H](CC(C)C)NC(=O)[C@H](Cc1ccccc1)NC(=O)[C@H](CCCCN)NC(=O)[C@H](CO)NC(=O)[C@H](Cc1ccccc1)NC(=O)[C@H](Cc1c[nH]c2ccccc12)NC(=O)[C@@H]1CCCN1C(=O)[C@@H](NC(=O)[C@@H](N)Cc1ccccc1)C(C)C)C(=O)N[C@@H](CC(C)C)C(N)=O (H-FVPWFSKF[dL][dW]RIL-NH2) is 19.21

Sure, the documented Activity for `CC[C@H](C)[C@H](NC(=O)[C@H](CCCNC(=N)N)NC(=O)[C@H]1C[C@@H](O)CN1C(=O)[C@@H](CC(C)C)NC(=O)[C@H](Cc1ccccc1)NC(=O)[C@H](CCCCN)NC(=O)[C@H](CO)NC(=O)[C@H](Cc1ccccc1)NC(=O)[C@H](Cc1c[nH]c2ccccc12)NC(=O)[C@@H]1CCCN1C(=O)[C@@H](NC(=O)[C@@H](N)Cc1ccccc1)C(C)C)C(=O)N[C@@H](CC(C)C)C(N)=O` is 0

Sure, the documented Activity for `CC[C@H](C)[C@H](NC(=O)[C@H](CCCNC(=N)N)NC(=O)[C@@H]1C[C@@H](O)CN1C(=O)[C@@H](CC(C)C)NC(=O)[C@H](Cc1ccccc1)NC(=O)[C@H](CCCCN)NC(=O)[C@H](CO)NC(=O)[C@H](Cc1ccccc1)NC(=O)[C@H](Cc1c[nH]c2ccccc12)NC(=O)[C@@H]1CCCN1C(=O)[C@@H](NC(=O)[C@@H](N)Cc1ccccc1)C(C)C)C(=O)N[C@@H](CC(C)C)C(N)=O` is 2.76
